System: Myzus persicae
Assay: Myzus persicae (Green Peach Aphid): Feeding/Contact Activity
Assay type: in vivo
Details: foliar, 144 h, application rate of 200 ppm, sprayed sunflower leaf discs, aphid population of mixed ages, 6 days after infestation
I'd be grateful if you could share measured mortality at 200 ppm for these entries.

{"columns": ["sample_smiles", "mortality at 200 ppm"],
 "data": [
  ["CCn1c(C(F)(F)F)cc2nc(-c3nc(N(C(=O)C4CC4)C(=O)C4CC4)c(Cl)cc3S(=O)(=O)CC)n(C)c2c1=O", "≥ 80%"],
  ["CCn1c(C(F)(F)F)cc2nc(-c3nc(N)c(Br)cc3S(=O)(=O)CC)n(C)c2c1=O", "≥ 80%"],
  ["CCn1c(C(F)(F)F)cc2nc(-c3nc(N)c(C4CC4)cc3S(=O)(=O)CC)n(C)c2c1=O", "≥ 80%"],
  ["CCS(=O)(=O)c1ccc(N)nc1-c1nc2cc(C(F)(F)F)n(C3CC3)c(=O)c2n1C", "≥ 80%"],
  ["CCn1c(C(F)(F)F)cc2nc(-c3ncc(N(C)S(C)(=O)=O)cc3S(=O)(=O)CC)n(C)c2c1=O", "≥ 80%"],
  ["CCn1c(C(F)(F)F)cc2nc(-c3ncc(NC(=O)C4CC4)cc3S(=O)(=O)CC)n(C)c2c1=O", "≥ 80%"],
  ["CCn1c(C(F)(F)F)cc2nc(-c3ncc(C(=O)NCC#N)cc3S(=O)(=O)CC)n(C)c2c1=O", "≥ 80%"],
  ["CCS(=O)(=O)c1cc(C)c(N)nc1-c1nc2cc(C(F)(F)F)n(C3CC3)c(=O)c2n1C", "≥ 80%"]
]}

Please go through the list and note mortality at 200 ppm for each compound.
1. CCS(=O)(=O)c1cc(Br)c(NC)nc1-c1nc2cc(C(F)(F)F)n(C3CC3)c(=O)c2n1C
2. CCn1c(C(F)(F)F)cc2nc(-c3ncc(N(C)C4CC4)cc3S(=O)(=O)CC)n(C)c2c1=O
3. CCn1c(C(F)(F)F)cc2nc(-c3ncc(N(C)C(=O)C4CC4)cc3S(=O)(=O)CC)n(C)c2c1=O
4. CCn1c(C(F)(F)F)cc2nc(-c3ncc(NC4CC4)cc3S(=O)(=O)CC)n(C)c2c1=O
5. CCS(=O)(=O)c1cc(C2CC2)c(N)nc1-c1nc2cc(C(F)(F)F)n(C3CC3)c(=O)c2n1C
6. CCn1c(C(F)(F)F)cc2nc(-c3ncc(N)cc3S(=O)(=O)CC)n(C)c2c1=O
7. CCn1c(C(F)(F)F)cc2nc(-c3nc(C(=O)NC4CC4)ccc3S(=O)(=O)CC)n(C)c2c1=O

Reply |
["≥ 80%", "≥ 80%", "≥ 80%", "≥ 80%", "≥ 80%", "≥ 80%", "≥ 80%"]

----------
System: Plutella xylostella
Assay: Plutella xylostella (Diamond Back Moth)
Type: in vivo
Details: 120 h, application rate of 200 ppm, artificial diet, L2 larvae, 5 days after infestation, read-out: effect in at least one of the two categories (mortality or growth inhibition)
parameter_measured: percent effect (mortality or growth inhibition) at 200 ppm

# example entries with known answers
{"columns": ["compound", "tested_on", "measured_value"],
 "data": [
  ["CCS(=O)(=O)c1ccc(N)nc1-c1nc2cc(C(F)(F)F)n(C3CC3)c(=O)c2n1C [Compound A42]", "Plutella xylostella", "≥ 80%"],
  ["CCn1c(C(F)(F)F)cc2nc(-c3nc(N(C(=O)C4CC4)C(=O)C4CC4)c(Cl)cc3S(=O)(=O)CC)n(C)c2c1=O [Compound A40]", "Plutella xylostella", "≥ 80%"],
  ["CCn1c(C(F)(F)F)cc2nc(-c3ncc(N(C)/C=N/OC)cc3S(=O)(=O)CC)n(C)c2c1=O [Compound A27]", "Plutella xylostella", "≥ 80%"],
  ["CCn1c(C(F)(F)F)cc2nc(-c3ncc(C(=O)NC4CC4)cc3S(=O)(=O)CC)n(C)c2c1=O [Compound A19]", "Plutella xylostella", "≥ 80%"],
  ["CCn1c(C(F)(F)F)cc2nc(-c3nc(Cl)c(N)cc3S(=O)(=O)CC)n(C)c2c1=O [Compound A53]", "Plutella xylostella", "≥ 80%"],
  ["CCn1c(C(F)(F)F)cc2nc(-c3nc(NC4CC4)c(Cl)cc3S(=O)(=O)CC)n(C)c2c1=O [Compound A31]", "Plutella xylostella", "≥ 80%"],
  ["CCn1c(C(F)(F)F)cc2nc(-c3ncc(NC4(C#N)CC4)cc3S(=O)(=O)CC)n(C)c2c1=O [Compound A24]", "Plutella xylostella", "≥ 80%"],
  ["CCn1c(C(F)(F)F)cc2nc(-c3nc(N)c(Cl)cc3S(=O)(=O)CC)n(C)c2c1=O [Compound A38]", "Plutella xylostella", "≥ 80%"]
]}

Now turn to the next compound.
Ask | What value of percent effect (mortality or growth inhibition) at 200 ppm has been recorded for this entry: CCn1c(C(F)(F)F)cc2nc(-c3nc(NC(=O)C4CC4)c(Cl)cc3S(=O)(=O)CC)n(C)c2c1=O [Compound A41]
Reply | ≥ 80%
